The reported measurements were obtained from patent US20200361895A1.

assay: PK protocol, intravenous administration; format: in vivo, male Sprague Dawley rats; conditions: male, Sprague Dawley, plasma, dose 1 mg/kg, rat
Structures can show the parent of a compound that is named as a salt.
Some compounds, each annotated with its measured log10(clearance).
All values: base-10 log of clearance in mL/min/kg.

Past entries and their recorded results:
{"compound": "COc1cc(-c2ccc3c(c2NC(=O)NS(=O)(=O)c2ccn(C(C)(C)CN(C)C)n2)CCC3)ccn1 [Example 69]", "observable": "log10(clearance)", "numeric_result": 1.28}
{"compound": "COc1cc(-c2cc(F)c3c(c2NC(=O)NS(=O)(=O)c2ccn(C(C)C)n2)CCC3)ccn1 [Example 55]", "observable": "log10(clearance)", "numeric_result": 0.99}
{"compound": "CC#Cc1cc(-c2cc(F)cc(C(C)C)c2NC(=O)NS(=O)(=O)c2ccn(C(C)C)n2)ccn1 [Example 51]", "observable": "log10(clearance)", "numeric_result": 1.44}

*Q* Read off the recorded log10(clearance) for COc1cc(-c2ccc3c(c2NC(=O)NS(=O)(=O)c2cncc(N(C)C)n2)CCC3)ccn1 [Example 104]
*A* 1.30

*Q* Tell me log10(clearance) reported for COc1cc(-c2ccc3c(c2NC(=O)NS(=O)(=O)c2ccn(C4CC4)n2)CCC3)ccn1 [Example 221, sodium salt]
*A* -0.41

*Q* Using known records, supply log10(clearance) for COc1cc(-c2cc(F)cc(C(C)C)c2NC(=O)NS(=O)(=O)c2cncc(N(C)C)n2)ccn1 [Example 103]
*A* 1.68

*Q* Using the record for COc1cc(-c2ccc3c(c2NC(=O)NS(=O)(=O)N(C)C2CCN(C)C2)CCC3)ccn1 (stereo not shown) [Example 122] , state its measured log10(clearance).
*A* 1.10

*Q* In one line, give reported log10(clearance) of the entry COc1cc(-c2cc(F)cc(C(C)C)c2NC(=O)NS(=O)(=O)c2cc(CN(C)C)n(C)n2)ccn1 [Example 36] .
*A* 1.68

*Q* Indicate its recorded log10(clearance); the compound in question is COc1cc(-c2ccc3c(c2NC(=O)NS(=O)(=O)c2ccc(CN(C)C)cc2)CCC3)ccn1 [Example 251, sodium salt]
*A* 1.12

*Q* Let me know recorded log10(clearance) for COc1cc(-c2cc(F)cc(C(C)C)c2NC(=O)NS(=O)(=O)c2cc(CN(C)C)n(C(C)C)n2)ccn1 [Example 37] , thanks.
*A* 1.83

###

biological target: NLRP3 (Homo sapiens, UniProt Q96P20); assay: THP-1 cells pyroptosis assay (LPS + nigericin, resazurin readout; THP IC50); format: cell-based; set-up: Seed THP-1 cells (25,000 cells/well) containing 1.0 μg/ml LPS in 40 μl of RPMI medium; host or cells: THP-1 cells
Sequence (Q96P20 whole entry): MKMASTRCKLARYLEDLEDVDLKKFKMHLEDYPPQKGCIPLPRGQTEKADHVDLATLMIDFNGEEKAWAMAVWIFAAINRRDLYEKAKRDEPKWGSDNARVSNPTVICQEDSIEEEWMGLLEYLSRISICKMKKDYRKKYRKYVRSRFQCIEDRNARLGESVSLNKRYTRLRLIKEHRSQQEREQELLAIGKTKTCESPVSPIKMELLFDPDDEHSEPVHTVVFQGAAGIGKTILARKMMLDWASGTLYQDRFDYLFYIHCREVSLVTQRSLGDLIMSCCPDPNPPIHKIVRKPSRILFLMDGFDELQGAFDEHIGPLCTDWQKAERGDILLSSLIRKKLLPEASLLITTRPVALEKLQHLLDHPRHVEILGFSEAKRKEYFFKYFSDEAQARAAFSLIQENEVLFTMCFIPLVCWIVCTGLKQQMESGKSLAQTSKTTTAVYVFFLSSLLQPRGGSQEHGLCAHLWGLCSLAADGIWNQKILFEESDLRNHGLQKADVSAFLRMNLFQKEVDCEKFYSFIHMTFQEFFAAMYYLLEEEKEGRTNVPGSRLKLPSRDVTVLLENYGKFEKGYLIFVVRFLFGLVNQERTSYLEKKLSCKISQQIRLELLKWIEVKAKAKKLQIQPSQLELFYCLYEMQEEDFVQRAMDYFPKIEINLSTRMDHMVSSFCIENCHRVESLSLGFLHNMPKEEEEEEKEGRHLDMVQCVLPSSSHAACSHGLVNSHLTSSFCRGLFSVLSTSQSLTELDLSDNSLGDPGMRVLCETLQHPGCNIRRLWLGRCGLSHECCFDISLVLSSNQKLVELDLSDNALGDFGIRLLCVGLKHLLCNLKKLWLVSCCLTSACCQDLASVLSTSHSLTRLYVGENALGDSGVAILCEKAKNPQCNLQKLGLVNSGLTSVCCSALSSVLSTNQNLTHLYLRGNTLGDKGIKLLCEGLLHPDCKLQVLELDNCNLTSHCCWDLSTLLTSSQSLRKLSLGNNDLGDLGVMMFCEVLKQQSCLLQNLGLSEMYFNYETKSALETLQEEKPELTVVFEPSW
Structures can show the parent of a compound that is named as a salt.
observable: IC50

{"compound": "COc1cc(-c2ccc3c(c2NC(=O)NS(=O)(=O)c2ccn(C4(CN5CCC5)CCC4)n2)CCC3)ccn1", "IC50": "≤ 500 nM"}
{"compound": "COc1cc(-c2ccc3c(c2NC(=O)NS(=O)(=O)c2ccn(CC(C)(C)OC)n2)CCC3)ccn1", "IC50": "≤ 500 nM"}
{"compound": "CC(C)c1cccc(-n2ccnc2)c1NC(=O)NS(=O)(=O)c1ccn(C(C)C)n1", "IC50": "≤ 5000 nM"}
{"compound": "CC(C)c1cc(F)cc(-c2ccnc(C#N)c2)c1NC(=O)NS(=O)(=O)Cc1ccccc1", "IC50": "≤ 10000 nM"}
{"compound": "CC(C)n1cc(S(=O)(=O)NC(=O)Nc2c(-c3ccnc(C#N)c3)ccc3c2CCC3)ccc1=O [Example 71, sodium salt]", "IC50": "≤ 500 nM"}
{"compound": "CC(C)n1ccc(S(=O)(=O)NC(=O)Nc2c(-c3ccnc(OC4CCN(C)CC4)c3)ccc3c2CCC3)n1 [Example 287, sodium salt]", "IC50": "≤ 500 nM"}
{"compound": "COc1cc(-c2cc(F)cc(C(C)C)c2NC(=O)NS(=O)(=O)C2CN(C(C)C)C2)ccn1", "IC50": "≤ 500 nM"}
{"compound": "Cn1cc(-c2ccc3c(c2NC(=O)NS(=O)(=O)c2ccn(C4CC4)n2)CCC3)ccc1=O", "IC50": "≤ 5000 nM"}

*Q* Determine its reported IC50: COc1cc(-c2ccc3c(c2NC(=O)NS(=O)(=O)OC(C)C)CCC3)ccn1 [Example 256, sodium salt]
*A* ≤ 1000 nM
